System: peripheral leucocytes
assay.protocol: Effect on the peripheral leucocytes number
Format: in vivo, mouse (ddY strain)
assay.setup: minimum dose reducing peripheral leucocytes number to 4000/mm^3; tumour-carrying ddY mice, intraperitoneal, 4 days after administration
Label satisfied when WBC4000 < 20 mg/kg; otherwise not satisfied.

Consider the worked cases shown below.
CO[C@@]12[C@H](COC(N)=O)C3=C(C(=O)C(C)=C(NCCSC(=O)c4ccc(F)cc4)C3=O)N1C[C@@H]1N[C@@H]12 = satisfied
CO[C@@]12[C@H](COC(N)=O)C3=C(C(=O)C(C)=C(NCCCSC(C)=O)C3=O)N1C[C@@H]1N[C@@H]12 = not satisfied

Attention now turns to another entry.
Query: Find out if reported WBC4000 for CO[C@@]12[C@H](COC(N)=O)C3=C(C(=O)C(C)=C(NCCSC(C)=O)C3=O)N1C[C@@H]1N[C@@H]12 [Compound 1, 7-N-[(2-acetylthio)ethyl]mitomycin] is less than 20 mg/kg
Result: satisfied

---

assay.protocol: Acute toxicity
assay.setup: mouse, in vivo, ip; ddY mice, intraperitoneally once, 14 days observation
endpoint.name: LD50 at 336 h

CO[C@@]12[C@H](COC(N)=O)C3=C(C(=O)C(C)=C(NCCCCSC(C)=S)C3=O)N1C[C@@H]1N[C@@H]12 [Compound 30] = > 100 mg/kg
CO[C@@]12[C@H](COC(N)=O)C3=C(C(=O)C(C)=C(NCCCCCCSC(C)=O)C3=O)N1C[C@@H]1N[C@@H]12 [Compound 11] = > 200 mg/kg
CO[C@@]12[C@H](COC(N)=O)C3=C(C(=O)C(C)=C(NCCCCCCSC(=O)c4ccccc4)C3=O)N1C[C@@H]1N[C@@H]12 [Compound 17] = > 50 mg/kg

Query: Name the recorded LD50 at 336 h for C=C1C2=C(C(=O)C(C)=C(NCCSC(=O)c3ccccc3)C2=O)N2C[C@H]3[C@H](N3C)[C@]12O (some centres unmarked) [Compound 15] .
Result: ≥ 50 mg/kg

Query: How about CO[C@@]12[C@H](COC(N)=O)C3=C(C(=O)C(C)=C(NCCCCCSC(C)=O)C3=O)N1C[C@@H]1N[C@@H]12 [Compound 10] ?
Result: > 75 mg/kg

---

System: Sarcoma 180 solid tumour
assay.protocol: animal or person
assay.setup: chemotherapeutic index
endpoint.name: CI (LD50/ED50)

Example compounds with recorded CI (LD50/ED50):
C=C1C2=C(C(=O)C(C)=C(NCCSC(=O)c3ccccc3)C2=O)N2C[C@H]3[C@H](N3C)[C@]12O (stereo partly shown) [Compound 15] = ≥ 1.8
CO[C@@]12[C@H](COC(N)=O)C3=C(C(=O)C(C)=C(NCCCCCCSC(C)=S)C3=O)N1C[C@@H]1N[C@@H]12 [Compound 31] = > 3.6
CO[C@@]12[C@H](COC(N)=O)C3=C(C(=O)C(C)=C(NCCCCSC(C)=S)C3=O)N1C[C@@H]1N[C@@H]12 [Compound 30] = > 2.7

In the following, a different compound is considered.
Query: Name the recorded CI (LD50/ED50) for CO[C@@]12[C@H](COC(N)=O)C3=C(C(=O)C(C)=C(NCCCCCSC(C)=O)C3=O)N1C[C@@H]1N[C@@H]12 [Compound 10] .
Result: > 2.0

---

Quick reference for CIc among some compounds
System: Sarcoma 180 solid tumour
assay.protocol: animal or person
assay.setup: CI of test compound divided by CI of mitomycin C as control in the same condition

C=C1C2=C(C(=O)C(C)=C(NCCSC(=O)c3ccccc3)C2=O)N2C[C@H]3[C@H](N3C)[C@]12O (stereo partly drawn) = ≥ 0.74
CO[C@@]12[C@H](COC(N)=O)C3=C(C(=O)C(C)=C(NCCCCCCSC(C)=S)C3=O)N1C[C@@H]1N[C@@H]12 = > 1.5

In the following, a different compound is considered.
Query: Name the recorded CIc for "CO[C@@]12[C@H](COC(N)=O)C3=C(C(=O)C(C)=C(NCCCCCCSC(=O)c4ccccc4)C3=O)N1C[C@@H]1N[C@@H]12" .
Result: > 1.7

---

System: peripheral leucocytes
assay.protocol: Effect on the peripheral leucocytes number
Assay type: in vivo, mouse (ddY strain)
assay.setup: minimum dose reducing peripheral leucocytes number to 4000/mm^3; tumour-carrying ddY mice, intraperitoneal, 4 days after administration
Quick reference for WBC4000 among some compounds
Kindly provide the numeric value in mg/kg only, without the unit symbol.

Example compounds with recorded WBC4000:
CO[C@@]12[C@H](COC(N)=O)C3=C(C(=O)C(C)=C(NCCSC(C)=S)C3=O)N1C[C@@H]1N[C@@H]12 = 7.6
CO[C@@]12[C@H](COC(N)=O)C3=C(C(=O)C(C)=C(NCCSC(=O)c4ccc(Br)cc4)C3=O)N1C[C@@H]1N[C@@H]12 = 11.5
C=C1C2=C(C(=O)C(C)=C(NCCSC(=O)c3ccccc3)C2=O)N2C[C@H]3[C@H](N3C)[C@]12O (stereo partly drawn) = 27.5
CC1=C(NCCSC(=O)c2ccc(F)cc2)C(=O)C2=C(C1=O)N1C[C@H]3[C@H](N3C)[C@]1(O)[C@H]2COC(N)=O (stereo partly drawn) = 19.1

Query: Name the recorded WBC4000 for CC(=O)SCCNC1=C(C)C(=O)C2=C(C1=O)[C@H](COC(N)=O)[C@@]1(O)[C@@H]3[C@H](CN21)N3C (stereo partly drawn) .
Result: 14.1

Query: How about "CO[C@@]12[C@H](COC(N)=O)C3=C(C(=O)C(C)=C(NCCCCSC(C)=O)C3=O)N1C[C@@H]1N[C@@H]12" ?
Result: 65.2

Query: How about "CO[C@@]12[C@H](COC(N)=O)C3=C(C(=O)C(C)=C(NCCCCCCCCSC(C)=O)C3=O)N1C[C@@H]1N[C@@H]12" ?
Result: 19.6

Query: How about "COc1ccc(C(=O)SCCNC2=C(C)C(=O)C3=C(C2=O)[C@@H](COC(N)=O)[C@@]2(OC)[C@H]4N[C@H]4CN32)cc1" ?
Result: 5
